target: casein kinase II (CK II) (Homo sapiens, UniProt P68400); construct: purchased Upstate Biotechnologie; assay: CK II kinase inhibition (Upstate test kit); type: biochemical; details: substance concentration 100 μM; ATP 50 μM
Sequence (P68400 whole entry): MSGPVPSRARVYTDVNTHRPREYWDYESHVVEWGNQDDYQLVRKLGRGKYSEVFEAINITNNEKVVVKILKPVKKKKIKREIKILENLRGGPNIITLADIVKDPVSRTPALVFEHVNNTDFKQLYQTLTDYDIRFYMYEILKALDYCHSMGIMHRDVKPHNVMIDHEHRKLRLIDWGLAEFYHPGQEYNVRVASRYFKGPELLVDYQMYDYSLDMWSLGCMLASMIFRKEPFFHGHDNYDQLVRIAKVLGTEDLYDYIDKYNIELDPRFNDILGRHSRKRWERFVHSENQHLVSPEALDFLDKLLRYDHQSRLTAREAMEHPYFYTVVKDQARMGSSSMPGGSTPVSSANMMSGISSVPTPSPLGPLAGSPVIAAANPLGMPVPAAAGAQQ
READOUT_TYPE: inhibition at 100 µM (%)

[P] Cc1c(-c2ccncc2)[nH]c2ccc(C(=O)N[C@@H](CCn3cccc3)C(N)=O)cc12 [Example 7]
[Q] O=C(N[C@@H](CSc1ccccc1)C(=O)O)c1ccc2[nH]c(-c3ccncc3)cc2c1 [Example 4]
*Q* In the pair P and Q , the larger recorded inhibition at 100 µM belongs to which? Respond using the label that marks the chosen record.
*A* Q
(Q: 47%, P: 18%)

[P] CCN(C[C@H](NC(=O)c1ccc2[nH]c(-c3ccncc3)cc2c1)C(N)=O)c1ccccc1 [Example 9]
[Q] Cc1c(-c2ccncc2)[nH]c2ccc(C(=O)N[C@@H](CSc3ccccc3)C(N)=O)cc12 [Example 6]
[R] Cc1c(-c2ccncc2)[nH]c2ccc(C(=O)N[C@@H](CSc3ccccc3)C(=O)O)cc12 [Example 5]
*Q* Order the entries by their reported inhibition at 100 µM, beginning at the minimum. Would you mind listing the labels in the order asked for?
*A* P, R, Q
(P: 0%, R: 27%, Q: 39%)

###

target: IκB kinase (Homo sapiens, UniProt O14920+O15111); construct: endogenous in cells; assay: IκB kinase ELISA; conditions: kinase complex from HeLa S3 cell extract S100, activated with MEKK1Δ
Sequence (O14920 whole entry): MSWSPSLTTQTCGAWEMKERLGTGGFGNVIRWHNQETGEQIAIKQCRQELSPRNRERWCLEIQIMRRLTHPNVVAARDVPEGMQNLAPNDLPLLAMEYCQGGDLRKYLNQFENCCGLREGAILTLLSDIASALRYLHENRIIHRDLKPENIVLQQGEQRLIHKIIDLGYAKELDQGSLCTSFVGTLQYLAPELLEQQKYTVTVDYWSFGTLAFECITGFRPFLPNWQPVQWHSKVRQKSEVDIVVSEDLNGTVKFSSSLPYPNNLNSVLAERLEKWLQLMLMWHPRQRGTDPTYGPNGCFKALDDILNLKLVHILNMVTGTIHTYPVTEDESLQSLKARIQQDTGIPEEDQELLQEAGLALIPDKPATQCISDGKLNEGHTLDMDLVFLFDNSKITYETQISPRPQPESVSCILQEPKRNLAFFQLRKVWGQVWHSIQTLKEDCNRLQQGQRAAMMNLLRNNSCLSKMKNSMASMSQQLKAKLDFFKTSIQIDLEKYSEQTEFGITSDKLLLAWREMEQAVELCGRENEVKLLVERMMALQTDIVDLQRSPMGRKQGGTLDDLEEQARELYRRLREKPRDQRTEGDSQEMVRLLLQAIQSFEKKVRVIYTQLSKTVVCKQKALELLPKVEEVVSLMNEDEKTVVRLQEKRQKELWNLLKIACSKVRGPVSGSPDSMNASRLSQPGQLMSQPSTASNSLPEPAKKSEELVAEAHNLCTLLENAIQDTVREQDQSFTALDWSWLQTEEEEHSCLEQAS
Sequence (O15111 whole entry): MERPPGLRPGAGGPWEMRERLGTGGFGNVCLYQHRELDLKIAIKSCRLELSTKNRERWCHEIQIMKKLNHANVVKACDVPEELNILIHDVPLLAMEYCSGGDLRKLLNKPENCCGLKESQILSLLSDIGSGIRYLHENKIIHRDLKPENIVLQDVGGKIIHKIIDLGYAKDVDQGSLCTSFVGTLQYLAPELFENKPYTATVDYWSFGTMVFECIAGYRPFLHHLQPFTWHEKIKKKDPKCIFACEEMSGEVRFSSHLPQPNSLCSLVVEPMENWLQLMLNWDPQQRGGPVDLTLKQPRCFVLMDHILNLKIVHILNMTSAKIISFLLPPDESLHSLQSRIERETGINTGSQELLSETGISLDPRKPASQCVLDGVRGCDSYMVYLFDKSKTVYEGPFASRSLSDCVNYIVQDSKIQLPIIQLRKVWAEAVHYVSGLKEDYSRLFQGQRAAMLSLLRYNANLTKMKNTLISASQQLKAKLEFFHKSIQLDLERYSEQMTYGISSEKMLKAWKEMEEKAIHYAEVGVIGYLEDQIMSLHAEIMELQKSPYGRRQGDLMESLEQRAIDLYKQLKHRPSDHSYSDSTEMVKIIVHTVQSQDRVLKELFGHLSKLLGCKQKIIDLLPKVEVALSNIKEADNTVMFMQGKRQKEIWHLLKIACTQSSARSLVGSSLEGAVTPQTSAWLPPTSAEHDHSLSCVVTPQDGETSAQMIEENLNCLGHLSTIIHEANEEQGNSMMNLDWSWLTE
Sequence (Q9Y6K9 whole entry partner): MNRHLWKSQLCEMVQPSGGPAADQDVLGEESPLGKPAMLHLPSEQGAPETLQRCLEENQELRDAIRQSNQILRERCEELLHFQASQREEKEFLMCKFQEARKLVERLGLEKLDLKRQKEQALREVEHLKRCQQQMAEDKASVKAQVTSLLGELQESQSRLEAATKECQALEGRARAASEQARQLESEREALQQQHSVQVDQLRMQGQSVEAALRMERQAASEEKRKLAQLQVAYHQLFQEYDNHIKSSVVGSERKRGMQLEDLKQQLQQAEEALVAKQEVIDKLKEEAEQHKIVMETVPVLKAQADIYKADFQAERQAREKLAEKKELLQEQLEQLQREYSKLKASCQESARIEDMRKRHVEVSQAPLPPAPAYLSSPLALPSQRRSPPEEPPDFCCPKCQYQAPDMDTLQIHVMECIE
pIC50: −log10 of the molar value.
READOUT_TYPE: pIC50

1. NC(=O)[C@H](CSc1ccccc1)NC(=O)c1ccc2[nH]c(-c3ccncc3)cc2c1 (stereo in doubt)    6.26

[I] CCN(C[C@H](NC(=O)c1ccc2[nH]c(-c3ccncc3)cc2c1)C(N)=O)c1ccccc1
[II] NC(=O)[C@H](CCc1ccccc1)NC(=O)c1ccc2[nH]c(-c3ccccc3)c(-c3ccccc3)c2c1
[III] Cc1c(-c2ccncc2)[nH]c2ccc(C(=O)N[C@@H](CSc3ccccc3)C(=O)O)cc12
[IV] Cc1c(-c2ccncc2)[nH]c2ccc(C(=O)N[C@@H](CCn3cccc3)C(N)=O)cc12
*Q* # sort list by recorded pIC50, greatest to least Your reply should list the labels following the order given in the request.
*A* I, III, IV, II
